# Read-out: Monokine induced gamma interferon (MIG), CXCL9 (gene 4283)
# ASSAY_PROCEDURE: BSK_3C_MIG: BioMAP Diversity Plus: 3C Assay for Monokine induced gamma interferon (MIG) Biomarker Activity (AID 2283021)
# EXPERIMENTAL_SETUP: primary human endothelial cells (HUVEC); actives raise or lower the signal
# Method: BSK_3C is a cell-based, multiplexed-readout assay that uses umbilical vein endothelium, a human vascular primary cell, with measurements taken at 24 hours after chemical dosing in a 96-well plate.BSK_3C_MIG is an assay component measured in the BSK_3C assay. It measures MIG antibody related to regulation of gene expression using ELISA technology.Data from the assay component BSK_3C_MIG was analyzed into 1 assay endpoint. […]
Active and inactive are the calls of the source. How the source made its calls: active means hit-call score of the fitted dose curve at least 0.9, where 1 is the maximum; inactive means score below 0.9.
Entry note: the call must match one of yes (1) = active, no (0) = inactive

### Prompt Would you mind telling me which call this test gave CCCCCCCCCCCCc1ccccc1S(=O)(=O)O ?
### Response no (0)

### Prompt Hi, do you know how CC(O)CO (stereo not given) came out in this test?
### Response no (0)

### Prompt Hi, sorry to bother you, what did the test record for CN(C)C=O ?
### Response no (0)

### Prompt Identify the outcome logged in this assay for the molecule shown: ClC1=C(Cl)C(Cl)(Cl)C(Cl)=C1Cl
### Response yes (1)

### Prompt Look up the recorded call for CCc1nn(C2CCCCC2)c2cc(C3(C#N)CCC(C(=O)O)CC3)ccc12 (stereo not given) in this test.
### Response no (0)

### Prompt What did the test return for CC(C)(C)CC(C)(C)c1ccc(O)c(-n2nc3ccccc3n2)c1 ?
### Response no (0)

### Prompt What did the test return for COCC(C)O (stereo not given) ?
### Response no (0)

### Prompt GET /call?item= CCCCCCCC(=O)O returns the recorded outcome of this test.
### Response no (0)

### Prompt Could you please tell me the result logged for COc1ccc([N+](=O)[O-])cc1N in this assay?
### Response no (0)

### Prompt What classification did Oc1cccc(O)c1 end up with in this test?
### Response no (0)

### Prompt So what was the verdict on NCC(F)(F)C(F)(F)C(F)(F)C(F)(F)C(F)(F)C(F)(F)C(F)(F)F in this test?
### Response no (0)

### Prompt What did this assay record as the result for OC1CCC(C2CCCCC2)CC1 (stereo not given) ?
### Response no (0)

### Prompt Per the records of this test, what outcome belongs to OC1CCCCC1 ?
### Response no (0)

### Prompt Name the outcome recorded for CCCCC(CC)COC(=O)CCCCC(=O)OCC(CC)CCCC (stereo not given) in the assay.
### Response no (0)

### Prompt Hello, I am checking results. What call was entered for O=[N+]([O-])c1ccc(O)cc1 ?
### Response no (0)

### Prompt Query: recorded result category for CCCOC(=O)c1ccc(O)cc1 in this test
### Response no (0)

### Prompt What is the recorded call for this molecule in the test? CCc1ccc(CCOc2ccc(CC3SC(=O)NC3=O)cc2)nc1 (stereo not given)
### Response no (0)

### Prompt # lookup: test call for CCCOc1sc(C(=O)N2CCC(c3cc(CN)ccc3F)CC2)c(C)c1Br
### Response yes (1)

### Prompt What is the recorded call for this molecule in the test? c1ccc2c(c1)Cc1ccccc1-2
### Response no (0)

### Prompt // param item: COCC(C)OCC(C)O (stereo not given) ; yields the recorded call
### Response no (0)

### Prompt GET /call?item= CC[C@H](C)[C@@H](C(=O)O)n1sc2ccccc2c1=O returns the recorded outcome of this test.
### Response no (0)

### Prompt Give the logged outcome of this assay for the following molecule: CC[C@H](c1ccc(O)cc1)[C@@H](CC)c1ccc(O)cc1
### Response yes (1)

### Prompt Can you look up the reported call for CC(C)CCCCCCOC(=O)CCCCC(=O)OCCCCCCC(C)C for me?
### Response no (0)

### Prompt Hello, I am checking results. What call was entered for Cc1cc(C)c(O)c(C)c1 ?
### Response no (0)

### Prompt Field: outcome | Entry: Cc1cc(CCN2CCN(c3nsc4ccccc34)CC2)cc2c1NC(=O)CC2(C)C
### Response yes (1)

### Prompt Field: outcome | Entry: CCCCCCCCCCCCCCCS(=O)(=O)Oc1ccccc1
### Response no (0)

### Prompt Fill in: this test's call for O=c1c(-c2ccc(O)cc2)coc2cc(O)ccc12 is ___
### Response no (0)

### Prompt What call does the record list for C#C[C@]1(O)CC[C@H]2[C@@H]3CCC4=CC(=O)CC[C@@H]4[C@H]3CC[C@@]21C ?
### Response no (0)

### Prompt GET /call?item= CCCCOCCO returns the recorded outcome of this test.
### Response no (0)

### Prompt Just curious, what result did C=C(C)C(=O)OCCC(F)(F)C(F)(F)C(F)(F)C(F)(F)C(F)(F)C(F)(F)F get here?
### Response no (0)

### Prompt Status in this test for NC(=O)N(O)[C@@H]1C=C[C@H](Oc2cccc(Oc3ccc(F)cc3)c2)C1 ?
### Response no (0)

### Prompt So what was the verdict on CC(C)(C)c1cccc(C(C)(C)C)c1O in this test?
### Response no (0)

### Prompt Recorded test outcome, item CCCCC(CC)COC(=O)CCCCC(=O)OCc1ccccc1 (stereo not given)
### Response no (0)

### Prompt Tell me the recorded outcome of this test for CCCCCCC(=O)O .
### Response no (0)

### Prompt Dear colleague, could you share the recorded outcome for CCCCCCCCC(=O)O when you have a moment?
### Response no (0)

### Prompt What classification did CCCCCCCCCCCCN1CCCC1=O end up with in this test?
### Response yes (1)

### Prompt Recorded test outcome, item CCC(=C(c1ccc(O)cc1)c1ccc(OCCN(C)C)cc1)c1ccccc1
### Response yes (1)

### Prompt Dear colleague, could you share the recorded outcome for O=C(O)c1ccccc1C(c1ccc(O)cc1)c1ccc(O)cc1 when you have a moment?
### Response no (0)

### Prompt Each molecule tested received a call. Report the one for O=C(OCCOCCOC(=O)c1ccccc1)c1ccccc1 .
### Response no (0)

### Prompt State the result this test recorded for NC(=O)N1C(=O)C(C(=O)c2cc(Cl)cs2)c2cc(F)c(Cl)cc21 (stereo not given) .
### Response no (0)
